// data source = PubChem BioAssay (NCI)

# Tested on: MOLT-4 leukemia
# assay-text: NCI tumour cell line growth inhibition, 48 h

{"compound": "CCCNC(=O)c1cc(NC(=O)c2cc(NC(=O)CCS(=O)(=O)OC)cn2C)cn1C", "TGI": "> 87.8 µM"}
{"compound": "CC1CC/C(=C\\c2ccc(F)cc2)C2=C1C(c1ccc(F)cc1)n1c(s/c(=C\\c3ccc(Cl)cc3)c1=O)=N2 (stereo unspecified)", "TGI": "> 100 µM"}
{"compound": "COc1ccc2c(c1)O/C(=C\\c1ccc([N+](=O)[O-])s1)C2=O", "TGI": "> 100 µM"}
{"compound": "CCN(CC)c1ccc(N=C2C=CC(=C(C#N)C#N)c3ccccc32)c(C)c1", "TGI": "9.63 µM"}
{"compound": "C/C(CC(O)(C(F)(F)F)C(F)(F)F)=N/Nc1ccc([N+](=O)[O-])cc1[N+](=O)[O-]", "TGI": "> 10 µM"}
{"compound": "COc1ccc(/C=C/C(=O)/C=C(/C=C/c2ccc(OC)c(OC)c2OC)OB(F)F)c(OC)c1OC", "TGI": "4.74 µM"}
{"compound": "N=c1oc2ccc(Cl)cc2cc1C(=O)NC1CCCCC1", "TGI": "> 100 µM"}
{"compound": "OCC(O)C(OC1OC(CO)C(O)C(O)C1O)c1nn(-c2ccc(Cl)cc2)c2nc3cc(Cl)ccc3nc12 (stereo unspecified)", "TGI": "> 100 µM"}
{"compound": "COc1ccc(-c2cc3c(N)ncnc3o2)cc1", "TGI": "> 25 µM"}
{"compound": "O=C1NC(=O)C2(CCc3ccc(N(CCCl)CCCl)cc32)N1 (stereo unspecified)", "TGI": "49.8 µM"}
{"compound": "Nc1nc(N)c(-c2ccc(Cl)cc2)c(/C=C/c2ccc([N+](=O)[O-])cc2)n1", "TGI": "> 100 µM"}
{"compound": "O=C(NC(Cc1ccccc1)P(=O)(O)c1ccccc1)OCc1ccccc1 (stereo unspecified)", "TGI": "> 100 µM"}
{"compound": "COc1cc2c(cc1OC)C(=O)N1CCCC1C(=O)S2 (stereo unspecified)", "TGI": "> 100 µM"}
{"compound": "Cc1c(C(=O)Nc2ccc(Cl)cc2)nc(N)nc1-c1cccc(Cl)c1", "TGI": "> 100 µM"}
{"compound": "CN1CCN(Cc2ccc(NC(=O)c3cncc(C#Cc4ncc5ccccn45)c3)cc2C(F)(F)F)CC1", "TGI": "5.82 µM"}
{"compound": "C(=NCCN=Cc1cccc2ccccc12)c1cccc2ccccc12", "TGI": "> 100 µM"}
{"compound": "C=C1C(OCCO)OC2O[C@]3(C)CCC4[C@H](C)CCC1C24OO3 (stereo partly specified)", "TGI": "27.9 µM"}
{"compound": "C=C1CC(CC(=O)C(C)CC2CC(=C)C(=O)O2)OC1=O (stereo unspecified)", "TGI": "29.7 µM"}
{"compound": "Cc1ccc(C(=O)C(C)N)cc1C (stereo unspecified)", "TGI": "> 100 µM"}
{"compound": "CCCC(=O)OC1=C(c2ccccc2)Sc2ccccc2-n2cccc21", "TGI": "> 10 µM"}
{"compound": "Cc1ccc(NCc2nnc3c(-c4ccccc4)nc4ccccc4n23)cc1", "TGI": "> 100 µM"}
